target: SHP2-C SH2; experiment: SH2 binding enrichment of the phosphorylated peptide, bacterial display (enrichment ratio); higher = better substrate or ligand; peptides without Tyr show the background;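 also: peptide library displayed on the E. coli surface as eCPX fusions, selected cells deep-sequenced, score is each peptide's frequency after selection divided by its frequency in the input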
# SH2 binding enrichment per record follows
experimental.endpoint: SH2 binding enrichment

# sequence, measured.result
records = [
    ("SNKLYYQLEQE [PDPR_Y110]", 0.725),
    ("KYRREYILSLE [GPC3_Y299_W296R]", 0.606),
    ("ILKPDYQPLAV [HYDIN_Y1072_I1077V]", 0.8),
    ("SLTRLCVGENA [NLRP3_Y861_Y861C]", 0.589),
    ("LLIMEYAKFGS [RET_Y806_V804M_YF]", 0.655),
    ("FGGTVYHSPVS [PRC1_Y511]", 2.81),
    ("LKVKAYRFSIS [LCT_Y974]", 0.641),
    ("AQADIYKADFQ [IKBKG_Y308]", 0.647),
    ("SRVTQYERDFE [SNX1_Y463]", 0.77),
    ("QMQAAYQKAVA [HBD_Y131_V134A]", 0.76),
    ("RLEGVYRNNID [PTEN_Y46]", 0.588),
    ("ITGNGYFFRVF [MYBPC3_Y1135_I1131T_YF]", 0.735),
    ("AAVLNYKAGRD [GRIN2A_Y737]", 0.44),
    ("RVKTPYSLKRW [BMPR2_Y979]", 3.37),
    ("RLNWIYFKDQT [RS1_Y165_YF]", 1.01),
    ("GNKENYGLPQP [BUB1_Y538]", 0.677),
    ("MAPQMYEFHLP [NCAPD2_Y6]", 0.582),
    ("MHDSNYVSKGS [PDGFRA_Y849]", 0.546),
    ("MHLRQYELLGG [GNAS_Y391]", 0.689),
    ("LFDHIYTTQSD [RET_Y928]", 0.796),
    ("NFADPYRQLQF [CTNND2_Y503_YF]", 1.04),
    ("AEYGLYRAMVR [VSX2_Y222_G223R]", 0.619),
    ("HDRNTYEKYLG [TF_Y666]", 0.874),
    ("LNLKEYNLVGG [GNAQ_Y356]", 0.844),
    ("ENQEIYQKAFD [KPNA1_Y493]", 0.737),
    ("PECEWYKNGVK [TTN_Y2112]", 0.472),
    ("HEKKAYAFCGT [RPS6KA3_Y226_S227A]", 0.888),
    ("SENYTYIWWLN [PSG4_Y271_K267E]", 0.636),
    ("REGKIYEFNQV [ZNF665_Y162_H157R_YF]", 0.589),
]

All figures here come from the supplement of paper PMC10065799.
